# credit: ChEMBL document CHEMBL4425085

List of pKd tested on Epidermal growth factor receptor (Homo sapiens, UniProt P00533).
Sequence (P00533 whole entry): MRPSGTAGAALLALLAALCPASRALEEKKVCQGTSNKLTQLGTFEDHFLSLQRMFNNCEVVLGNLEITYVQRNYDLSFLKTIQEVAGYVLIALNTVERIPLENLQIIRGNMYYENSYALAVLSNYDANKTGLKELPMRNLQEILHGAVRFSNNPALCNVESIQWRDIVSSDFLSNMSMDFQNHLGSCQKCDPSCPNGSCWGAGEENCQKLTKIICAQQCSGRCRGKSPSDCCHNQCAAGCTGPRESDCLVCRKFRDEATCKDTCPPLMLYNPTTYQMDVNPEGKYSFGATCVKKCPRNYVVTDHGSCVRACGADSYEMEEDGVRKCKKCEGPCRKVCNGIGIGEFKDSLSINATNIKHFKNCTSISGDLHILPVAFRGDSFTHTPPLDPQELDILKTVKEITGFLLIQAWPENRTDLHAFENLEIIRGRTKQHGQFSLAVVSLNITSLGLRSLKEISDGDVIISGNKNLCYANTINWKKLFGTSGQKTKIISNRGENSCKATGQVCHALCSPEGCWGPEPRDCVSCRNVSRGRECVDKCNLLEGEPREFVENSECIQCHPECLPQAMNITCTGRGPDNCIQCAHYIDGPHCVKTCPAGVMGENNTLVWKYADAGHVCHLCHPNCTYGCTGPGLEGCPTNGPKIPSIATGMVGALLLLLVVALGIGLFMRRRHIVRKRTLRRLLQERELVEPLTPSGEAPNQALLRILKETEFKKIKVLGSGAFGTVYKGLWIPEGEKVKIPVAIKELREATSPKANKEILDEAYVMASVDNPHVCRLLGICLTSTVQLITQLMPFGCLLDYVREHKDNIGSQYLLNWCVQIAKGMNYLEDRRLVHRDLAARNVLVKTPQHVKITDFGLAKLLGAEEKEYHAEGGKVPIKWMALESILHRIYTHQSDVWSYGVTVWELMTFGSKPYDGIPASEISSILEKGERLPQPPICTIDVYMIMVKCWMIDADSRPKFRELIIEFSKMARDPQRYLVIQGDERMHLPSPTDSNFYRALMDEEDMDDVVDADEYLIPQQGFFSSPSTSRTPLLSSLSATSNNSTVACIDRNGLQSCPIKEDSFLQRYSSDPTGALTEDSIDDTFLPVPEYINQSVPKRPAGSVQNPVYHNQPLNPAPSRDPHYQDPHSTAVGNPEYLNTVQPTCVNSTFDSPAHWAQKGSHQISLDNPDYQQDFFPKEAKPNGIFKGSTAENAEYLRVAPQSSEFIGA
pKd: −log10 of the molar value.
MEASURED_ENDPOINT: pKd

>>> print(df.to_string())
                  compound_structure_string  measured_result
0  C=CC(=O)Nc1cccc(-n2c3nc(Nc4ccc(N5CCN(C)CC5)cc4OC)ncc3c(=O)n3ccnc23)c1             6.85

[A] C=CC(=O)Nc1cccc(-n2c3nc(Nc4ccc(N5CCN(C)CC5)cc4OC)ncc3c(=O)n3c4ccccc4nc23)c1
[B] C=CC(=O)Nc1cccc(-n2c3nc(Nc4ccc(N5CCOCC5)cc4OC)ncc3c(=O)n3ccnc23)c1
[C] C=CC(=O)Nc1cccc(-n2c3nc(Nc4ccc(N5CCN(C)CC5)cc4OCC)ncc3c(=O)n3ccnc23)c1
[D] C=CC(=O)Nc1cccc(N2C3=NCCCCN3C(=O)c3cnc(Nc4ccc(N5CCN(C)CC5)cc4OC)nc32)c1
Rank the items in ascending order with respect to pKd. Provide your answer as the labels ordered per the instruction.
B, C, A, D
(B: 6.02, C: 6.38, A: 6.96, D: 7.77)
